TESTED_ON: cdk4/cyclin D1 (Homo sapiens)
Construct: made in house; host or cells: Sf9 insect cells (Bac-to-Bac baculovirus, pFastBac)
Sequence (P11802 whole entry): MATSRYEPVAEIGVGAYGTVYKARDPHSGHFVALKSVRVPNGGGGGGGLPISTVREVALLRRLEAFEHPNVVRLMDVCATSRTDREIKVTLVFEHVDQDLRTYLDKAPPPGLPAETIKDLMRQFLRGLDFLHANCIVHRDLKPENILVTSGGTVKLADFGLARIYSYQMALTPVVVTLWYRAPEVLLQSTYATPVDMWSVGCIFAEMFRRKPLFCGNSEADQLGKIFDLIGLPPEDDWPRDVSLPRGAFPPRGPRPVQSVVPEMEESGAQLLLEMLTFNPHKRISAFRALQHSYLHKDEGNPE
Sequence (P24385 whole entry partner): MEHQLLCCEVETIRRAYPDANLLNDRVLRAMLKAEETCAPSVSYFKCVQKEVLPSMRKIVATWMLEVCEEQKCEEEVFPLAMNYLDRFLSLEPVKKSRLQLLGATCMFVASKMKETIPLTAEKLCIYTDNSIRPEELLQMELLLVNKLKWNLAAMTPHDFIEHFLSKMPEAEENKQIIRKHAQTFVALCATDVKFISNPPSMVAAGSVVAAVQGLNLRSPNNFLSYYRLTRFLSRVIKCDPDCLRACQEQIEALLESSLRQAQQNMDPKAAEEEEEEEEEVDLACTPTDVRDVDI
ASSAY_PROCEDURE: Cyclin-dependent Kinase 4 Assay (cdk4/cyclin D1, GST-Rb substrate)
Assay type: biochemical
CONDITION_DESCRIPTION: cdk4/cyclin D1 insect cell lysate, 10 μM ATP, 30 min at 37° C., several values = separate determinations, read-out: CDK4 Inhibition IC50
Structures can show the parent of a compound that is named as a salt.
METRIC_NAME: IC50 (nM)
Give the value, in units of nM, as a plain number.

// recorded IC50 for COc1ccc(CNc2nc(N[C@H]3CC[C@H](N)CC3)nc3c2ncn3C(C)C)cc1OC [Example 19, dihydrochloride] : 20000

// recorded IC50 for COCCOCCCNc1nc(N[C@H]2CC[C@H](N)CC2)nc2c1ncn2C1CCCC1 [Example 15, dihydrochloride] : 40

// recorded IC50 for N[C@H]1CC[C@H](Nc2nc(NC3CCN(Cc4cc(C(F)(F)F)cc(C(F)(F)F)c4)CC3)c3ncn(C4CCCC4)c3n2)CC1 [Example 147-d, trihydrochloride] : 64000

// recorded IC50 for N[C@H]1CC[C@H](Nc2nc(NC3CCN(Cc4cccc(C(F)(F)F)c4)CC3)c3ncn(C4CCCC4)c3n2)CC1 [Example 147-m, trihydrochloride] : 370

// recorded IC50 for N[C@H]1CC[C@H](Nc2nc(NCC3CCC(CO)CC3)c3ncn(C4CCCC4)c3n2)CC1 (stereo partly drawn) [Example 10, dihydrochloride] : 1600

// recorded IC50 for N[C@H]1CC[C@H](Nc2nc(NC3CCN(Cc4ccccc4)CC3)c3ncn(C4CCCC4)c3n2)CC1 [Example 33, trihydrochloride] : 410
